# Cmax per entry
experiment: Pharmacokinetics in rats (plasma) after oral administration
Format: in vivo
settings: rat, in vivo, po, SD rats, p.o. 5 mg/kg, read-out: Cmax

compound | unit of measurement | Cmax
Nc1nc2cc3c(cc2n2cncc12)C(=O)N(C1COc2cc(C(F)(F)F)ccc21)CCC/C=C\3 (racemic) | ng/mL | 183
C[C@H]1OCc2c1c(N)nc1cc3c(cc21)C(=O)N(Cc1ccc(S(F)(F)(F)(F)F)cn1)CCCOC3 [Example 437-P1] | ng/mL | 318
Nc1nc2cc3c(cc2n2cncc12)C(=O)N([C@@H]1COCc2nc(C(F)(F)F)ccc21)CC/C=C\3 (single isomer, unassigned) [Example 311-P1] | ng/mL | 330

* * *

Listed next: entries and their corresponding Tmax.
experiment: Pharmacokinetics in rats (plasma) after oral administration
Assay type: in vivo
settings: rat, po, SD rats, p.o. 5 mg/kg, read-out: tmax

compound | unit of measurement | Tmax
Nc1nc2cc3c(cc2c2c1COC2)C(=O)N(Cc1ccc(C(F)(F)F)cn1)CCCOC3 [Example 178] | h | 1.7
Nc1nc2cc3c(cc2c2c1COC2)C(=O)N(Cc1ccc(S(F)(F)(F)(F)F)cn1)CCCOC3 [Example 434] | h | 2
Nc1nc2cc3c(cc2c2c1COC2)C(=O)N(Cc1ccc(C(F)(F)F)cn1)CC/C=C\3 [Example 638] | h | 1.7

* * *

System: MTAP Knockout HCT116 cells
experiment: Cell proliferation inhibition (CellTiter-Glo), HCT116 MTAP knockout cells
Type: cell-based
settings: Homo sapiens, HCT-116; MTAP Knockout HCT116 cells, proliferation inhibition, Cell Titer-Glo; read-out: MTAP Knockout HCT116 IC50

molecule | IC50
NC1=NC2C=C3CCCCCN(Cc4ccc(C(F)(F)F)cn4)C(=O)C3=CC2n2cncc21 (stereo not shown) | 12 nM
Nc1nc2cc3c(cc2n2cncc12)C(=O)N(Cc1ccc(-c2c(F)cncc2F)cn1)CCC/C=C\3 | 3.6 nM
Nc1nc2cc3c(cc2n2cncc12)C(=O)N([C@@H]1COc2cc(C(F)(F)F)ccc21)CCC/C=C\3 (stereo in doubt) [Example 164-P1] | 14 nM
Nc1nc2cc3c(cc2c2c1COC2)C(=O)N(C1COCc2nc(C(F)(F)F)ccc21)CCC/C=C\3 (single isomer, unassigned) [Example 165-P1] | 5.2 nM
Nc1nc2cc3c(cc2n2cncc12)C(=O)N(Cc1ccc(C(F)(F)F)cn1)CC/C=C\3 | 2.4 nM
Nc1nc2cc3c(cc2n2cncc12)C(=O)N(Cc1ccc(S(F)(F)(F)(F)F)cc1)CCCOC3 | 5.3 nM
Nc1nc2cc3c(cc2c2c1COC2)C(=O)N(Cc1ccc(C(F)(F)F)cn1)CCC/C=C\3 | 3.5 nM
Nc1nc2cc3c(cc2n2cncc12)C(=O)N(Cc1ccc(C(F)(F)F)cn1)CCCOC3 | 15 nM
Nc1nc2cc3c(cc2n2cncc12)C(=O)N(Cc1ccc(C24CC(C2)C4)cn1)CCCOC3 | 9.9 nM
CC(c1ccc(C(F)(F)F)cn1)N1CC/C=C\c2cc3nc(N)c4cncn4c3cc2C1=O (single isomer, unassigned) [Example 313-P1] | 17 nM
Nc1nc2cc3c(cc2n2cncc12)C(=O)N(C1COCc2nc(C(F)(F)F)ccc21)CC/C=C\3 (stereo not shown) | 23 nM
Nc1nc2cc3c(cc2n2cncc12)C(=O)N(C1COc2cc(C(F)(F)F)ccc21)CCC/C=C\3 (racemic) | 16 nM
Nc1nc2cc3c(cc2n2cncc12)C(=O)N(Cc1ccc(S(F)(F)(F)(F)F)cn1)CCCOC3 | 4.9 nM

* * *

experiment: Pharmacokinetics in rats (plasma) after oral administration
Type: in vivo
settings: male, rat, po, SD rats, p.o. 5 mg/kg, read-out: MRT0-∞
Examples of compounds with documented MRT inf follow.

compound | unit of measurement | MRT inf
Nc1nc2cc3c(cc2n2cncc12)C(=O)N(Cc1ccc(C(F)(F)F)cn1)CC/C=C\3 | h | 2.9
Nc1nc2cc3c(cc2c2c1COC2)C(=O)N(C1COCc2nc(C(F)(F)F)ccc21)CCC/C=C\3 (single isomer, unassigned) [Example 165-P1] | h | 2.5
Nc1nc2cc3c(cc2n2cncc12)C(=O)N(C1COCc2nc(C(F)(F)F)ccc21)CCCC/C=C\3 (single isomer, unassigned) [Example 62-P1] | h | 3.8
Nc1nc2cc3c(cc2n2cncc12)C(=O)N(C1COCc2nc(C(F)(F)F)ccc21)CCC/C=C\3 (centres unmarked) | h | 2
Nc1nc2cc3c(cc2n2cncc12)C(=O)N(Cc1ccc(S(F)(F)(F)(F)F)cn1)CCCOC3 | h | 3.3

* * *

experiment: Pharmacokinetics in rats (plasma) after oral administration
Format: in vivo
settings: rat, in vivo, po, SD rats, p.o. 5 mg/kg, read-out: tmax
observable: Tmax (h)

molecule | reported value
Nc1nc2cc3c(cc2n2cncc12)C(=O)N(C1COc2cc(C(F)(F)F)ccc21)CCC/C=C\3 (racemic) [Example 164] | 4
Nc1nc2cc3c(cc2n2cncc12)C(=O)N([C@@H]1COCc2nc(C(F)(F)F)ccc21)CC/C=C\3 (single isomer, unassigned) [Example 311-P1] | 2.3
C[C@H]1OCc2c1c(N)nc1cc3c(cc21)C(=O)N(Cc1ccc(S(F)(F)(F)(F)F)cn1)CCCOC3 [Example 437-P1] | 2

* * *

System: HCT116 wild-type cells
experiment: Cell proliferation inhibition (CellTiter-Glo), HCT116 wild-type cells
Assay type: cell-based
settings: Homo sapiens, HCT-116, read-out: HCT116 IC50
pIC50: −log10 of the molar value.
Label scheme for pIC50: lower than 6 is rule not met, 6 and above is rule met.

compound | class assignment
Nc1nc2cc3c(cc2n2cncc12)C(=O)N(Cc1ccc(C(F)(F)F)cn1)CCCCOC3 | rule not met
Nc1nc2cc3c(cc2c2c1COC2)C(=O)N(Cc1ccc(C(F)(F)F)cn1)CC/C=C\3 | rule met
Cn1ncc2c(N)nc3cc4c(cc3c21)C(=O)N(Cc1ccc(-c2c(F)cccc2F)cn1)CCCOC4 | rule met
Nc1nc2cc3c(cc2n2cncc12)C(=O)N(C1COCc2nc(C(F)(F)F)ccc21)CC/C=C\3 (racemic) | rule not met
Cn1ncc2c(N)nc3cc4c(cc3c21)C(=O)N(C1COc2cc(C(F)(F)F)ccc21)CCCOC4 (centres unmarked) | rule not met

* * *

Item-by-item account of MRT inf
experiment: Pharmacokinetics in rats (plasma) after oral administration
Type: in vivo
settings: rat, in vivo, po, SD rats, p.o. 5 mg/kg, read-out: MRT0-∞
observable: MRT inf (h)

compound | reported value
Nc1nc2cc3c(cc2n2cncc12)C(=O)N([C@@H]1COCc2nc(C(F)(F)F)ccc21)CC/C=C\3 (single isomer, unassigned) [Example 311-P1] | 3.7
C[C@H]1OCc2c1c(N)nc1cc3c(cc21)C(=O)N(Cc1ccc(S(F)(F)(F)(F)F)cn1)CCCOC3 [Example 437-P1] | 3.7
Nc1nc2cc3c(cc2n2cncc12)C(=O)N(C1COc2cc(C(F)(F)F)ccc21)CCC/C=C\3 (racemic) [Example 164] | 7.6

* * *

experiment: Pharmacokinetics in rats (plasma) after oral administration
Format: in vivo
settings: male, rat, po, SD rats, p.o. 5 mg/kg
Collected half-life values appear next to each entry.

compound | half-life (h)
Nc1nc2cc3c(cc2c2c1COC2)C(=O)N(C1COCc2nc(C(F)(F)F)ccc21)CCC/C=C\3 (single isomer, unassigned) [Example 165-P1] | 1.5
Nc1nc2cc3c(cc2n2cncc12)C(=O)N(Cc1ccc(C(F)(F)F)cn1)CC/C=C\3 [Example 416] | 1.3
Nc1nc2cc3c(cc2n2cncc12)C(=O)N(C1COCc2nc(C(F)(F)F)ccc21)CCCC/C=C\3 (single isomer, unassigned) [Example 62-P1] | 2.2
Nc1nc2cc3c(cc2n2cncc12)C(=O)N(C1COCc2nc(C(F)(F)F)ccc21)CCC/C=C\3 (centres unmarked) [Example 158] | 1.3
Nc1nc2cc3c(cc2n2cncc12)C(=O)N(Cc1ccc(S(F)(F)(F)(F)F)cn1)CCCOC3 [Example 414] | 1.3

* * *

Tested on: HCT116 wild-type cells
experiment: Cell proliferation inhibition (CellTiter-Glo), HCT116 wild-type cells
Type: cell-based
settings: Homo sapiens, HCT-116; HCT116 wild-type cells, proliferation inhibition, Cell Titer-Glo; read-out: HCT116 IC50
Each entry belongs to exactly one class, chosen by where its IC50 falls: bottom range: < 200 nM; center range: ≥ 200 nM and < 1000 nM; top range: ≥ 1000 nM

compound | class assignment
NC1=NC2C=C3CCCCCN(Cc4ccc(C(F)(F)F)cn4)C(=O)C3=CC2n2cncc21 (stereo not drawn) | center range
Nc1nc2cc3c(cc2n2cncc12)C(=O)N(Cc1ccc(C(F)(F)F)cn1)CCCOC3 | center range
Nc1nc2cc3c(cc2n2cncc12)C(=O)N(Cc1ccc(S(F)(F)(F)(F)F)cc1)CCCOC3 | bottom range
Nc1nc2cc3c(cc2n2cncc12)C(=O)N(Cc1ccc(S(F)(F)(F)(F)F)cn1)CCCOC3 | center range
Nc1nc2cc3c(cc2n2cncc12)C(=O)N(C1COCc2nc(C(F)(F)F)ccc21)CC/C=C\3 (stereo not drawn) | top range
Nc1nc2cc3c(cc2n2cncc12)C(=O)N(Cc1ccc(-c2c(F)cncc2F)cn1)CCC/C=C\3 | bottom range
Nc1nc2cc3c(cc2n2cncc12)C(=O)N(C1COc2cc(C(F)(F)F)ccc21)CCC/C=C\3 (racemic) | top range
Nc1nc2cc3c(cc2n2cncc12)C(=O)N([C@@H]1COc2cc(C(F)(F)F)ccc21)CCC/C=C\3 (stereo in doubt) [Example 164-P1] | center range

Origin of the recorded values: patent EP4818176A1
